Molecular target: T1, FZD7 CRD (Homo sapiens, UniProt O75084)
T1 construct: D45-S169; GPI anchor signal (C); expressed in transfected cells; host or cells: CHO cells, lentiviral pLenti-puro
Experiment: Immunofluorescence of anti-FZD5 Fab binding to CHO cells overexpressing Frizzled CRD
Design: key: −: no binding; +: very weak binder; ++: weak binder; +++: good binder; ++++: very good binder
outcome measure: Immunofluorescence binding, Frizzled CRD overexpressed on CHO cells: FZD7

[
  {
    "molecule": "Fab-2925: anti-FZD5 Fab with antibody variable region Fv-2925; CDR SEQ ID NOs: 35, 36, 64, 102, 140, 172 (antibody, V domains shown) VH: EVQLVESGGGLVQPGGSLRLSCAASGFNLSYSSMHWVRQAPGKGLEWVASIYPSYGSTYYADSVKGRFTISADTSKNTAYLQMNSLRAEDTAVYYCARYGYFGLDYWGQGTLVTVSS VL: DIQMTQSPSSLSASVGDRVTITCRASQSVSSAVAWYQQKPGKAPKLLIYSASSLYSGVPSRFSGSRSGTDFTLTISSLQPEDFATYYCQQAWVYASLFTFGQGTKVEIK",
    "readout value": "++"
  },
  {
    "molecule": "Fab-2912: anti-FZD5 Fab with antibody variable region Fv-2912; CDR SEQ ID NOs: 35, 36, 51, 90, 127, 164 (antibody, V domains shown) VH: EVQLVESGGGLVQPGGSLRLSCAASGFNISYSYIHWVRQAPGKGLEWVASISSSSGYTSYADSVKGRFTISADTSKNTAYLQMNSLRAEDTAVYYCARTVRGSKKPYFSGWAMDYWGQGTLVTVSS VL: DIQMTQSPSSLSASVGDRVTITCRASQSVSSAVAWYQQKPGKAPKLLIYSASSLYSGVPSRFSGSRSGTDFTLTISSLQPEDFATYYCQQFYFPYLITFGQGTKVEIK",
    "readout value": "++++"
  }
]

Sourced from patent US20210253718A1
